- Tested on: Pseudomonas aeruginosa
- PROTOCOL DESCRIPTION: Antibacterial activity against Pseudomonas aeruginosa […] after 18 to 20 hrs by two-fold microbroth dilution method
- Type: functional
A collection of compounds and their measured MIC
MEASURE: MIC (µM)

structure_notation=CC(=O)OC[C@H]1O[C@@H](NC(=S)N/N=C2/C(=O)Nc3c2cc(Br)cc3[N+](=O)[O-])[C@H](OC(C)=O)[C@@H](OC(C)=O)[C@@H]1OC(C)=O assay_system="Pseudomonas aeruginosa" measure=MIC meas_value=25
structure_notation=CC(=O)OC[C@H]1O[C@@H](NC(=S)N/N=C2/C(=O)Nc3ccc(F)cc32)[C@H](OC(C)=O)[C@@H](OC(C)=O)[C@@H]1OC(C)=O assay_system="Pseudomonas aeruginosa" measure=MIC meas_value=50
structure_notation=CC(=O)OC[C@H]1O[C@@H](NC(=S)N/N=C2/C(=O)N(Cc3ccccc3)c3ccccc32)[C@H](OC(C)=O)[C@@H](OC(C)=O)[C@@H]1OC(C)=O assay_system="Pseudomonas aeruginosa" measure=MIC meas_value=100
structure_notation=CC(=O)OC[C@H]1O[C@@H](NC(=S)N/N=C2/C(=O)Nc3ccc(Br)cc32)[C@H](OC(C)=O)[C@@H](OC(C)=O)[C@@H]1OC(C)=O assay_system="Pseudomonas aeruginosa" measure=MIC meas_value=50
structure_notation=CC(=O)OC[C@H]1O[C@@H](NC(=S)N/N=C2/C(=O)Nc3ccc(Cl)cc32)[C@H](OC(C)=O)[C@@H](OC(C)=O)[C@@H]1OC(C)=O assay_system="Pseudomonas aeruginosa" measure=MIC meas_value=50
structure_notation=O=C(O)c1cn(C2CC2)c2cc(N3CCNCC3)c(F)cc2c1=O assay_system="Pseudomonas aeruginosa" measure=MIC meas_value=1.56

----------
Recorded MIC for the following compounds
- Tested on: Staphylococcus epidermidis
- PROTOCOL DESCRIPTION: Antibacterial activity against Staphylococcus epidermidis ATCC 12228 after 18 to 20 hrs by two-fold microbroth dilution method
- Type: functional
MEASURE: MIC (µM)

structure_notation=CC(=O)OC[C@H]1O[C@@H](NC(=S)N/N=C2/C(=O)Nc3c(Br)cc(Br)cc32)[C@H](OC(C)=O)[C@@H](OC(C)=O)[C@@H]1OC(C)=O value_unit=µM meas_value=1.56
structure_notation=CC(=O)OC[C@H]1O[C@@H](NC(=S)N/N=C2/C(=O)N(C)c3ccccc32)[C@H](OC(C)=O)[C@@H](OC(C)=O)[C@@H]1OC(C)=O value_unit=µM meas_value=100
structure_notation=CC(=O)OC[C@H]1O[C@@H](NC(=S)N/N=C2/C(=O)Nc3c2cc(Cl)cc3[N+](=O)[O-])[C@H](OC(C)=O)[C@@H](OC(C)=O)[C@@H]1OC(C)=O value_unit=µM meas_value=6.25
structure_notation=CC(=O)OC[C@H]1O[C@@H](NC(=S)N/N=C2/C(=O)Nc3c2cc(Br)cc3[N+](=O)[O-])[C@H](OC(C)=O)[C@@H](OC(C)=O)[C@@H]1OC(C)=O value_unit=µM meas_value=6.25
structure_notation=CC(=O)OC[C@H]1O[C@@H](NC(=S)N/N=C2/C(=O)N(Cc3ccccc3)c3ccccc32)[C@H](OC(C)=O)[C@@H](OC(C)=O)[C@@H]1OC(C)=O value_unit=µM meas_value=200
structure_notation=CC(=O)OC[C@H]1O[C@@H](NC(=S)N/N=C2/C(=O)Nc3ccc(C)cc32)[C@H](OC(C)=O)[C@@H](OC(C)=O)[C@@H]1OC(C)=O value_unit=µM meas_value=12.5

Data provenance is ChEMBL document CHEMBL3872214.
